Biological target: T1, corticotropin-releasing hormone (CRH) peptide (human and mouse, UniProt P01143 145-185 (rat entry), not fully specified)
T1 peptide: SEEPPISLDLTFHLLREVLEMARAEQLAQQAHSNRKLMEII
Assay: cell-based or functional assay
Test readout: hCRHR1-Luc 0.5 nM CRH IC50 (nM)

Binder	Test readout	Observed result
PR302334-17 (antibody, human IgG1, kappa, V domains shown) VH: EVQLVESGGGLVQPGGSLRLSCAASGFTFSTYAMSWVRQAPGKGLEWVSSIRSGGTTYYPDSVKGRFTISRDNSKNSLYLQMNSLRAEDTAVYYCARGIDWGQGTTVTVSS VL: NIVMTQTPKFLLVSAGDRITITCKASQSVNNDVAWYQQKPGQSPKLLIYYASNRYTGVPDRFTGSGYGTDFTFTISTVQAEDLAVYFCQQDYSSWTFGGGTNLEIKR	hCRHR1-Luc 0.5 nM CRH IC50	12.2
PR302334-22 (antibody, human IgG1, kappa, V domains shown) VH: EVQLVESGGGLVQPGGSLRLSCAASGFTFSTYAMSWVRQAPGKGLEWVSSIRSGGTTYYPDSVKGRFTISRDNSKNSLYLQMNSLRAEDTAVYYCARGIDWGQGTTVTVSS VL: EIVMTQSPATLSVSPGERATLSCKASQSVNNDVAWYQQKPGQAPRLLIYYASNRYTGIPARFSGSGSGTEFTLTISSLQSEDLAVYFCQQDYSSWTFGGGTKVEIKR	hCRHR1-Luc 0.5 nM CRH IC50	0.92
PR302334-8 (antibody, human IgG1, kappa, V domains shown) VH: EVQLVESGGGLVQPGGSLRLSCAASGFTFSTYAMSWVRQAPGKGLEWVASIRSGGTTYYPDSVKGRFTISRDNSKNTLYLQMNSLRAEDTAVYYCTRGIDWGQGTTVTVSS VL: EIVMTQSPATLSVSPGERATLSCKASQSVNNDVAWYQQKPGQAPRLLIYYASNRYTGIPARFSGSGSGTEFTLTISSLQSEDLAVYFCQQDYSSWTFGGGTKVEIKR	hCRHR1-Luc 0.5 nM CRH IC50	0.816
PR302334-12 (antibody, human IgG1, kappa, V domains shown) VH: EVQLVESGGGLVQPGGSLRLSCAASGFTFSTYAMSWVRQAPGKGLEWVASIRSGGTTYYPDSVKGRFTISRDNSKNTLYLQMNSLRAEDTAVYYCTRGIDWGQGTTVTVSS VL: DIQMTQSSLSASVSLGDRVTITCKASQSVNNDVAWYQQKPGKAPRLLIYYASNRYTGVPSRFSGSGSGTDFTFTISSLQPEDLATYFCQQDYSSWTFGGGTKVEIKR	hCRHR1-Luc 0.5 nM CRH IC50	0.986
PR302334-15 (antibody, human IgG1, kappa, V domains shown) VH: EVQLVESGGGLVKPGGSLRLSCAASGFTFSTYAMSWVRQAPGKGLEWVSSIRSGGTTYYPDSVKGRFTISRDNAKNSLYLQMNSLRAEDTAVYYCARGIDWGQGTTVTVSS VL: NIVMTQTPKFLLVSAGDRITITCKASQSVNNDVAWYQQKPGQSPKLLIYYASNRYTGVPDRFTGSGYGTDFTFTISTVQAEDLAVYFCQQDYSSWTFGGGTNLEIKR	hCRHR1-Luc 0.5 nM CRH IC50	5.12

Entry source: patent US20250197490A1
